test: clinical; conditions: human, in vivo, po, 20 mg, T max
readout-name: Tmax

                                   compound  result
0  C=CC(=O)N1CC[C@H](n2nc(C#Cc3cc(OC)cc(OC)c3)c3c(N)ncnc32)C1 [futibatinib, Futibatinib]  1.75 h
